Can you tell me Ki for the items I'm about to list?

Query string: Requested read-out Ki, target or system GSK3-β (AA 1-420) (Homo sapiens, UniProt P49841), entry COc1ccc(Nc2nccc(-c3nccs3)n2)cc1Oc1ccc(Cl)cc1 [Compound I-111]
Result string: < 100 nM

Query string: Requested read-out Ki, target or system GSK3-β (AA 1-420) (Homo sapiens, UniProt P49841), entry Clc1ccc(Cl)c(-c2cccc(Nc3nccc(-c4nccs4)n3)c2)c1 [Compound I-21]
Result string: > 1000 nM

Query string: Requested read-out Ki, target or system GSK3-β (AA 1-420) (Homo sapiens, UniProt P49841), entry COc1ccc(-c2ccccc2)cc1Nc1ncc(C)c(-c2nccs2)n1 [Compound I-93]
Result string: > 1000 nM

Query string: Requested read-out Ki, target or system GSK3-β (AA 1-420) (Homo sapiens, UniProt P49841), entry Fc1ccc(-c2cccc(Nc3nccc(-c4nccs4)n3)c2)c(F)c1 [Compound I-18]
Result string: < 100 nM

Query string: Requested read-out Ki, target or system GSK3-β (AA 1-420) (Homo sapiens, UniProt P49841), entry Cc1ccccc1-c1cccc(Nc2nccc(-c3nccs3)n2)c1 [Compound I-3]
Result string: < 100 nM

Query string: Requested read-out Ki, target or system GSK3-β (AA 1-420) (Homo sapiens, UniProt P49841), entry O=[N+]([O-])c1cccc(Nc2nccc(-c3nccs3)n2)c1 [Compound I-16]
Result string: > 1000 nM

Query string: Requested read-out Ki, target or system GSK3-β (AA 1-420) (Homo sapiens, UniProt P49841), entry Oc1ccccc1-c1cccc(Nc2nccc(-c3nccs3)n2)c1 [Compound I-69]
Result string: < 100 nM

Query string: Requested read-out Ki, target or system GSK3-β (AA 1-420) (Homo sapiens, UniProt P49841), entry Cc1cnc(Nc2cccc(-c3ccc(O)cc3)c2)nc1-c1nccs1 [Compound I-84]
Result string: < 100 nM

Query string: Requested read-out Ki, target or system GSK3-β (AA 1-420) (Homo sapiens, UniProt P49841), entry Clc1cccc(Cl)c1Nc1nccc(-c2nccs2)n1 [Compound I-61]
Result string: > 1000 nM

Query string: Requested read-out Ki, target or system GSK3-β (AA 1-420) (Homo sapiens, UniProt P49841), entry CS(=O)(=O)c1ccc(-c2cccc(Nc3nccc(-c4nccs4)n3)c2)cc1 [Compound I-45]
Result string: < 100 nM

Query string: Requested read-out Ki, target or system GSK3-β (AA 1-420) (Homo sapiens, UniProt P49841), entry COc1ccc(Oc2ccccc2)cc1Nc1ncc(C)c(-c2nccs2)n1 [Compound I-117]
Result string: > 1000 nM

Query string: Requested read-out Ki, target or system GSK3-β (AA 1-420) (Homo sapiens, UniProt P49841), entry COc1ccc(-c2cccc(Nc3nccc(-c4nccs4)n3)c2)c(OC)c1OC [Compound I-12]
Result string: < 100 nM

Query string: Requested read-out Ki, target or system GSK3-β (AA 1-420) (Homo sapiens, UniProt P49841), entry Fc1ccc(Nc2nccc(-c3nccs3)n2)cc1F [Compound I-49]
Result string: < 100 nM

Query string: Requested read-out Ki, target or system GSK3-β (AA 1-420) (Homo sapiens, UniProt P49841), entry c1cc(Nc2nccc(-c3nccs3)n2)cc(OCC2CCCCC2)c1 [Compound I-76]
Result string: < 100 nM

Query string: Requested read-out Ki, target or system GSK3-β (AA 1-420) (Homo sapiens, UniProt P49841), entry c1cc(Nc2nccc(-c3nccs3)n2)cc(-c2ccc3[nH]ccc3c2)c1 [Compound I-78]
Result string: < 100 nM

Query string: Requested read-out Ki, target or system GSK3-β (AA 1-420) (Homo sapiens, UniProt P49841), entry Cc1cnc(Nc2cccc(C(F)(F)F)c2)nc1-c1nccs1 [Compound I-99]
Result string: < 100 nM

Query string: Requested read-out Ki, target or system GSK3-β (AA 1-420) (Homo sapiens, UniProt P49841), entry COc1cc(O)ccc1-c1cccc(Nc2nccc(-c3nccs3)n2)c1 [Compound I-75]
Result string: < 100 nM

Query string: Requested read-out Ki, target or system GSK3-β (AA 1-420) (Homo sapiens, UniProt P49841), entry Clc1cccc(Nc2nccc(-c3nccs3)n2)n1 [Compound I-28]
Result string: < 100 nM

Query string: Requested read-out Ki, target or system GSK3-β (AA 1-420) (Homo sapiens, UniProt P49841), entry c1ccc(COc2ccc(Nc3nccc(-c4nccs4)n3)cc2)cc1 [Compound I-10]
Result string: > 1000 nM
